Test system: Mus musculus
Assay: Percent inhibition of proteinuria in mice, perorally dose of 32 mg/kg
Format: functional
Conditions: route oral
Tick class 1 if inhibition in vivo at 32 mg/kg is 50% or greater. Tick class 0 if inhibition in vivo at 32 mg/kg is less than 50%.

CSc1ccc2c(c1)c(O)c(C(=O)N(C)c1ccccn1)c(=O)n2C: class 1
CSc1ccc2c(c1)c(N)c(C(=O)N(C)c1ccccc1)c(=O)n2C: class 0
CCN(C(=O)c1c(O)c2cc(SC)ccc2n(C)c1=O)c1ccccc1: class 1
CSc1ccc2c(c1)c(O)c(C(=O)N(C)c1ccccc1)c(=O)n2Cc1ccccc1: class 0
CNc1c(C(=O)N(C)c2ccccc2)c(=O)n(C)c2ccc(SC)cc12: class 1
CSc1ccc2c(c1)c(Cl)c(C(=O)N(C)c1ccccc1)c(=O)n2C: class 0
CSc1ccc2c(c1)c(S)c(C(=O)N(C)c1ccccc1)c(=O)n2C: class 0
CN(C(=O)c1c(O)c2cc(S(C)(=O)=O)ccc2n(C)c1=O)c1ccccc1: class 0
CSc1ccc2c(c1)c(O)c(C(=O)N(C)c1ccccc1)c(=O)n2C: class 1
COc1ccc(N(C)C(=O)c2c(O)c3cc(SC)ccc3n(C)c2=O)cc1: class 1
CCn1c(=O)c(C(=O)N(C)c2ccccc2)c(O)c2cc(SC)ccc21: class 1
CN(C(=O)c1c(O)c2ccccc2n(C)c1=O)c1ccccc1: class 1
COCn1c(=O)c(C(=O)N(C)c2ccccc2)c(O)c2cc(SC)ccc21: class 1
CN(C(=O)c1c(O)c2cc([S+](C)[O-])ccc2n(C)c1=O)c1ccccc1 (stereo not given): class 1
CN(C(=O)c1c(O)c2cc(Sc3ccccc3)ccc2n(C)c1=O)c1ccccc1: class 1
CSc1ccc2c(c1)c(O)c(C(=O)N(C)C1CCCCC1)c(=O)n2C: class 0
CN(C(=O)c1c(O)c2cc(Oc3ccccc3)ccc2n(C)c1=O)c1ccccc1: class 0
CSc1ccc2nc(O)c(C(=O)N(C)c3ccccc3)c(O)c2c1: class 1
CSc1ccc2c(c1)c(O)c(S(=O)(=O)N(C)c1ccccc1)c(=O)n2C: class 1
CSc1ccc2c(c1)c(O)c(C(=O)N(C)c1ccc(F)cc1)c(=O)n2C: class 1

The values you see were collected from ChEMBL document CHEMBL1135099.
